- Tested on: SNB-75 CNS
- assay: NCI-60 one-dose screen, 48 h (100 = growth as untreated, 0 = no growth, -100 = all killed)
- condition-details: 10 µM unless noted
This is part of a sample that, as a whole, favours compounds with a hit. Of some 83,000 tested, about 20% had one in any assay.
reported-metric: growth (%)
Please give a number only; it is taken to be in %.

Query: What does the data say about its growth? Entry: COc1cccc(C=NC(Cc2cnc[nH]2)C(=O)O)c1O (stereo not drawn)
Reply: 86.3

Query: What does the data say about its growth? Entry: CCCC(=O)O[C@@H]1C[C@H]2C[C@@H](O[C@@H]3O[C@@H](C)[C@@H](O)[C@@H](O)[C@H]3OC)C[C@@H](C[C@@H](C)/C=C/C=C\C[C@@H]3O[C@@H](C[C@@H]3C)[C@@H](O)C[C@H]3C[C@@]1(O)C(=O)O3)O2
Reply: 55.4

Query: What does the data say about its growth? Entry: CC[C@H](C)[C@H](NC(=O)c1nccn1C)C(=O)N(C)[C@H](C[C@@H](OC(C)=O)c1nc(C(=O)N[C@@H](Cc2ccccc2)C[C@H](C)C(=O)OC)cs1)C(C)C
Reply: 15.8

---

- Test system: NCI-H226 lung
- assay: NCI-60 one-dose screen, 48 h
- condition-details: 10 µM unless noted
This is part of a sample that, as a whole, favours compounds with a hit. Of some 83,000 tested, about 20% had one in any assay. The source made the active and inactive calls. The calls were made as follows: active = growth percent below 10; inactive = the rest.
Lab note: assign the record to one of TRUE for active, FALSE for inactive

Query: What did this assay record as the result for O=C(CC1(O)C(=O)Nc2ccccc21)c1ccc(C(=O)NCC2CCC3(CC2)OOC2(CCCCC2)OO3)cc1 (configuration not stated) ?
Reply: FALSE

Query: What did this assay record as the result for Cc1cc(-c2nc3cc(F)ccc3[se]2)cc(F)c1N ?
Reply: FALSE

Query: What did this assay record as the result for COC(=O)[C@@H](C)C[C@H](Cc1ccccc1)NC(=O)c1nc([C@@H](C[C@H](C(C)C)N(C)C(=O)[C@@H](NC(=O)[C@H]2C[C@H](O)CCN2C)C(C)C)OC(C)=O)sc1C(C)C ?
Reply: TRUE

Query: What did this assay record as the result for C=C1C[C@](OC)([C@H](O)C(=O)N[C@@H](OC)[C@@H]2C[C@@H](O)C(C)(C)[C@@H](C[C@@H](COC)OC)O2)O[C@H](C)[C@@H]1C ?
Reply: TRUE

Query: What did this assay record as the result for CC(=O)[O][Hg][O]C(C)=O ?
Reply: FALSE

Query: What did this assay record as the result for COc1ccc(N(CC(=O)NCCC[Te]c2ccccc2)C(=O)CNC(=O)OC(C)(C)C)cc1 ?
Reply: TRUE

Query: What did this assay record as the result for CC[C@H](C)[C@H](NC(=O)[C@H]1CCCCN1C)C(=O)N(C)[C@H](CCc1nc(C(=O)N[C@@H](Cc2ccccc2)C[C@H](C)C(=O)OC)cs1)C(C)C ?
Reply: FALSE

Query: What did this assay record as the result for CC(C)CCC(=O)O[C@H]1CC[C@H]2[C@@H]3CCC4=CC(=O)CC[C@]4(C)[C@H]3CC[C@]12C ?
Reply: FALSE

Query: What did this assay record as the result for Nc1ncnc2n[nH]nc12 ?
Reply: FALSE

Query: What did this assay record as the result for Cc1ccc(Nc2nc3c(s2)C2=CC[C@@H]4[C@H](CC[C@]5(C)C(=O)CC[C@@H]45)[C@@]2(C)CC3)cc1 ?
Reply: FALSE

Query: What did this assay record as the result for CC12CCC(O)CC1=CCC1C2CCC2(C)C(O)CCC12 (configuration not stated) ?
Reply: FALSE

Query: What did this assay record as the result for COc1cc(/C=C/[N+](=O)[O-])cc(OC)c1 ?
Reply: TRUE

Query: What did this assay record as the result for CCC(CC)CC1(C)CC2(C)CCOC2OO1 (configuration not stated) ?
Reply: FALSE

Query: What did this assay record as the result for CCOC(=O)[C@@H](C)C[C@H](Cc1ccccc1)NC(=O)c1csc([C@@H](C[C@H](C(C)C)N(C)C(=O)[C@@H](NC(=O)[C@H]2CCCCN2C)C(C)(C)C)OC(C)=O)n1 ?
Reply: FALSE

Query: What did this assay record as the result for COc1cc2c(c(OC)c1OC)-c1ccc([O-])c(=O)cc1[C@@H](NC(C)=O)CC2.COc1cc2c(c(OC)c1OC)-c1ccc([O-])c(=O)cc1[C@@H](NC(C)=O)CC2.[Cu+2] ?
Reply: FALSE

Query: What did this assay record as the result for ClC1=C(Cl)C(Cl)(C2(Cl)C(Cl)=C(Cl)C(Cl)=C2Cl)C(Cl)=C1Cl ?
Reply: TRUE

Query: What did this assay record as the result for CC12CCC3C(CCC4=CC(=O)CCC43CF)C1CCC2=O (configuration not stated) ?
Reply: FALSE

---

- Tested on: CCRF-CEM leukemia
- assay: NCI-60 one-dose screen, 48 h (100 = growth as untreated, 0 = no growth, -100 = all killed)
- condition-details: 10 µM unless noted
This is part of a sample that, as a whole, favours compounds with a hit. Of some 83,000 tested, about 20% had one in any assay. Calls of active or inactive are those of the source. How the source made its calls: active means growth percent below 10; inactive means the rest.
reported-metric: growth

Query: What does the data say about its growth? Entry: COC(=O)[C@@H](C[C@H](Cc1ccccc1)NC(=O)c1csc([C@@H](C[C@H](C(C)C)N(C)C(=O)[C@@H](NC(=O)[C@H]2CCCCN2C)C(C)C)OC(C)=O)n1)NC(=O)OCc1ccccc1
Reply: 6.42% [9.5 µM] (active)

Query: What does the data say about its growth? Entry: CC12CCC3C(CCC4=CC(=O)CCC43CF)C1CCC2=O (configuration not stated)
Reply: 88.2% (inactive)

Query: What does the data say about its growth? Entry: CO[C@H](C(=O)O)[C@@H]1Cc2cc3cc(OC4CC(OC5CC(O)C(O)C(C)O5)C(O)C(C)O4)c(C)c(O)c3c(O)c2C(=O)[C@H]1OC1CC(OC2CC(OC3CC(C)(O)C(O)C(C)O3)C(O)C(C)O2)C(O)C(C)O1 (some centres not stated)
Reply: 23.8% (inactive)

Query: What does the data say about its growth? Entry: COc1cc(/C=C\c2cc(OC)c(OC)c(OC)c2)cc(N/C=C\C(=O)c2cc(OC)c(OC)c(OC)c2)c1OC
Reply: 8.89% (active)

Query: What does the data say about its growth? Entry: Clc1cccc(N2COOC3(OOC2)C2CC4CC(C2)CC3C4)c1
Reply: -32.7% (active)

Query: What does the data say about its growth? Entry: CC[C@H](C)[C@H](NC(=O)C12CC(NC(C)=O)(C1)C2)C(=O)N(C)[C@H](C[C@@H](OC(C)=O)c1nc(C(=O)N[C@@H](Cc2ccccc2)C[C@H](C)C(=O)OC)cs1)C(C)C
Reply: 12.2% (inactive)

Query: What does the data say about its growth? Entry: O=C(O)c1c(Cl)n(Cc2ccc(O)cc2)c2ccc(O)cc12
Reply: 81.6% (inactive)

Query: What does the data say about its growth? Entry: CC[C@H](C)[C@H](NC(=O)[C@H]1CCCCN1C)C(=O)N(C)[C@H](CCc1nc(C(=O)N[C@@H](Cc2ccccc2)C[C@H](C)C(=O)OC)cs1)C(C)C
Reply: 12.8% (inactive)

Query: What does the data say about its growth? Entry: COC(=O)[C@@]1(C)CC[C@]2(C)CC[C@]3(C)C4=CC=C5C(=CC(=O)C(O)=C5C)[C@]4(C)CC[C@@]3(C)[C@@H]2C1
Reply: -41.2% (active)

Query: What does the data say about its growth? Entry: COC(=O)[C@@H](C)C[C@H](Cc1ccccc1)NC(=O)c1csc([C@@H](C[C@H](C(C)C)N(C)C(=O)[C@@H](NC(=O)[C@H]2CCCCN2C)C(C(F)(F)F)C(F)(F)F)OC(C)=O)n1
Reply: 4.93% (active)

Query: What does the data say about its growth? Entry: CC[C@@H]1[C@@H](C)O[C@@](O)([C@@H](C)[C@H](O)[C@H](C)[C@H]2OC(=O)/C=C/C=C/[C@H](C)[C@@H]([C@@H](C)[C@@H](O)[C@H](C)[C@@]3(O)C[C@@H](O[C@H]4C[C@@H](O)[C@H](O)C(C)O4)[C@H](CC)[C@@H](C)O3)OC(=O)/C=C/C=C/[C@@H]2C)C[C@H]1O[C@@H]1C[C@@H](O)[C@H](O)C(C)O1 (some centres not stated)
Reply: -61.5% (active)

Query: What does the data say about its growth? Entry: CC[C@H](C)[C@H](NC(=O)N[C@@H](C)c1ccccc1)C(=O)N(C)[C@H](C[C@@H](OC(C)=O)c1nc(C(=O)N[C@@H](Cc2ccccc2)C[C@H](C)C(=O)OC)cs1)C(C)C
Reply: 10.7% (inactive)

Query: What does the data say about its growth? Entry: CN(C)C(=O)Oc1ccccc1
Reply: 104% (inactive)

Query: What does the data say about its growth? Entry: CCC(O)(CN)c1ccccc1 (configuration not stated)
Reply: 90.1% (inactive)

Query: What does the data say about its growth? Entry: COC(=O)[C@@H](C)C[C@H](Cc1ccccc1)NC(=O)c1csc([C@@H](C[C@H](C(C)C)N(C)C(=O)[C@@H](NC(=O)CN(C)C)C2CC2)OC(C)=O)n1
Reply: 10.3% (inactive)

Query: What does the data say about its growth? Entry: COc1cc2c(cc1OCCCCCn1c(-c3ccco3)nc3ccccc31)N=C[C@@H]1CCCN1C2=O
Reply: 29.8% (inactive)

Query: What does the data say about its growth? Entry: CC12CCC3C(C=CC4=C(N)C(=O)CCC43C)C1CCC2=O (configuration not stated)
Reply: 6.62% (active)

Query: What does the data say about its growth? Entry: C=CC[PH+](c1ccccc1)c1ccccc1.C=CC[PH+](c1ccccc1)c1ccccc1.[Cl][Pt][Cl]
Reply: 3.7% (active)

Query: What does the data say about its growth? Entry: O=C(CC1(O)C(=O)N(Cc2ccccc2)c2ccc(Cl)cc21)c1ccc(C(=O)NCC2CCC3(CC2)OOC2(CCCCC2)OO3)cc1 (configuration not stated)
Reply: -42.7% (active)

Query: What does the data say about its growth? Entry: COc1cccc2c1c(C(=O)C(=O)Nc1cc(C)no1)cn2Cc1ccc(F)cc1
Reply: 66.6% (inactive)

Query: What does the data say about its growth? Entry: COC(=O)[C@@H](C)C[C@H](Cc1ccccc1)NC(=O)c1csc([C@@H](C[C@H](C(C)C)N(C)C(=O)C2(NC(=O)[C@H]3CCCCN3C)CCC2)OC(C)=O)n1
Reply: 10% (active)

Query: What does the data say about its growth? Entry: CC1CCCC(C[N+](C)(C)C)C1=O (configuration not stated)
Reply: 95.2% (inactive)

Query: What does the data say about its growth? Entry: COC(=O)[C@@H](C)C[C@H](Cc1ccccc1)NC(=O)c1csc([C@@H](C[C@H](C(C)C)N(C)C(=O)[C@H](C)NC(=O)[C@H]2CCCCN2C)OC(C)=O)n1
Reply: 12.3% (inactive)

Query: What does the data say about its growth? Entry: CCOC(=O)[C@@H](C)C[C@H](Cc1ccccc1)NC(=O)c1nc([C@@H](C[C@H](C(C)C)N(C)C(=O)[C@@H](NC(=O)[C@H]2CCCCN2C)C(C)C)OC(C)=O)sc1CCOCc1ccccc1
Reply: 0.263% (active)

Query: What does the data say about its growth? Entry: COC(=O)[C@H](Cc1ccccc1)NC(=O)c1csc([C@@H](C[C@H](C(C)C)N(C)C(=O)[C@@H](NC(=O)[C@H]2CCCN2C)C2CC2)OC(C)=O)n1
Reply: 4.07% (active)

Query: What does the data say about its growth? Entry: COc1ccc2c(c1)c(-c1nc(-c3cn(C)c4ncccc34)cs1)cn2CCCCN1CCCCC1
Reply: -50.5% (active)

Query: What does the data say about its growth? Entry: O=C(CCCCCNC1=CC(=O)c2ccccc2C1=O)NCCC[Te]c1ccccc1
Reply: -15.3% (active)
